target: T1, human ROR1 (full-length, on the cell surface) (human, UniProt Q01973 30-937); assay: flow cytometry, A549 cells
T1 construct: whole, on cells; the tumour cell lines carry their own ROR1; also called Ba/F3-ROR1 cells; Jeko-1
T1 sequence (Q01973 30-937): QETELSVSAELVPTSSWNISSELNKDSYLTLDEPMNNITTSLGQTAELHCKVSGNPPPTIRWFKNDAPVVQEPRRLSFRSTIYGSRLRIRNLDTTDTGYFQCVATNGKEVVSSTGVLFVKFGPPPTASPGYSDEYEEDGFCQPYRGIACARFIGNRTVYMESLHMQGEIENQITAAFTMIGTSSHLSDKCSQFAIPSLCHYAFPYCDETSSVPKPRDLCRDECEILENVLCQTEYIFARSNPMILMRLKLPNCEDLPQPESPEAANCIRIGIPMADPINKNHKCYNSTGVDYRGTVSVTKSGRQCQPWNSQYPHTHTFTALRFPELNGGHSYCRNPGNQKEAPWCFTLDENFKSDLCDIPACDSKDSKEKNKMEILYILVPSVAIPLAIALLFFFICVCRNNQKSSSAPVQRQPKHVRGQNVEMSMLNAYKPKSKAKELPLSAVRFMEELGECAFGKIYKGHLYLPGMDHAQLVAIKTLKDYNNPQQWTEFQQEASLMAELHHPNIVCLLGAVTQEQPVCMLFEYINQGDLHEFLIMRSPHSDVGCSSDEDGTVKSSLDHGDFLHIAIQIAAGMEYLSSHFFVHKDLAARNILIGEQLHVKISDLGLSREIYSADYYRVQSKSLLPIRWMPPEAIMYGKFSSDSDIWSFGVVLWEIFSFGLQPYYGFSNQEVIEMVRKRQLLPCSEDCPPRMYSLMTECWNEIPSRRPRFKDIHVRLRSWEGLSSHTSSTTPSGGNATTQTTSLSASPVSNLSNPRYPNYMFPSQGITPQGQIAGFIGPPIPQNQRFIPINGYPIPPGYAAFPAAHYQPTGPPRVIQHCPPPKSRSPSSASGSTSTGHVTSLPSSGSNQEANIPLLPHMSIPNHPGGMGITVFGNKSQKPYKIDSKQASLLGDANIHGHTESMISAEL
pEC50: −log10 of the molar value.

{"BINDER": "19F6-Hu32 (antibody, human IgG1, kappa, V domains shown, humanized, human IgG1 / kappa) VH: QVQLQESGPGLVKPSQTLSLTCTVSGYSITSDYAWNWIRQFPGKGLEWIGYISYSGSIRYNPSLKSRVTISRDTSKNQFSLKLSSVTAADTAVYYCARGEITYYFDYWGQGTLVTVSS VL: DIQMTQSPSSLSASVGDRVTITCITTTDIDDDMNWYQQKPGKAPKLLISEGNTLQSGVPSRFSGSGYGTDFTLTISSLQPEDFATYYCLQSNDLPLTFGQGTKLEIKR", "pEC50": 10.05}
{"BINDER": "19F6-Hu22 (antibody, human IgG1, kappa, V domains shown, humanized, human IgG1 / kappa) VH: QVQLQESGPGLVKPSETLSLTCTVSGYSITSDYAWNWIRQPPGKGLEWMGYISYSGSIRYNPSLKDRITISRDTSKNQFSLKLSSVTAADTAVYYCARGEITYYFDYWGQGTLVTVSS VL: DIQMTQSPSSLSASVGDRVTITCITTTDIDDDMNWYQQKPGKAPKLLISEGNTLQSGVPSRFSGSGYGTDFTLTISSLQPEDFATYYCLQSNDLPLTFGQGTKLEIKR", "pEC50": 9.60}
{"BINDER": "19F6-Hu35 (antibody, human IgG1, kappa, V domains shown, humanized, human IgG1 / kappa) VH: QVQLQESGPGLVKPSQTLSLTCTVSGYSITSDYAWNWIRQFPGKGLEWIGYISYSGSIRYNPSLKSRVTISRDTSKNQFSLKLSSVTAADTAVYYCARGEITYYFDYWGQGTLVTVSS VL: ETTLTQSPAFMSATPGDKVTISCKASTDIDDDMNWYQQKPGEPPKLIISEGNTLRPGIPPRFSSSGYGTDFTFTINNIESEDAADYYCLQSNDLPLTFGQGTKLEIKR", "pEC50": 10.10}
{"BINDER": "19F6-Hu11 (antibody, human IgG1, kappa, V domains shown, humanized, human IgG1 / kappa) VH: QVQLQESGPGLVKPSETLSLTCTVTGYSITSDYAWNWIRQPPGKGLEWMGYISYSGSIRYKPSLKDRITISRDTSKNQFSLKLSSVTAADTAVYYCARGEITYYFDYWGQGTLVTVSS VL: DIQMTQSPSSLSASVGDRVTITCITTTDIDDDMNWYQQKPGKAPKLLISEGNTLRPGVPSRFSGSGYGTDFTLTISSLQPEDFATYYCLQSNDLPLTFGQGTKLEIKR", "pEC50": 9.77}
{"BINDER": "38F8-Hu56 (antibody, human IgG1, kappa, V domains shown, humanized, human IgG1 / kappa) VH: EVQLVESGGGLVQPGGSLRLSCAASGFTFSNYAMSWVRQAPEKRLEWVASISSGGPTYYPDSVKGRFTVSRDNSKNTLYLQMNSLRAEDTAVYYCARGYRYDVNWYFDVWGAGTMVTVSS VL: DIQMTQSPSSLSASVGDRVTITCQASQDINSYLTWFQQKPGKSPKTLIHRANRLVTGVPSRFSGSGSGTDFTFTISSLQPEDIATYYCLQYDEFPYTFGGGTKVEIKR", "pEC50": 9.49}
{"BINDER": "38F8-Hu68 (antibody, human IgG1, kappa, V domains shown, humanized, human IgG1 / kappa) VH: QVQLVESGGGLVKPGGSLRLSCAASGFTFSNYAMSWVRQAPEKRLEWVASISSGGPTYYPDSVKGRFTISRDNAKNSLYLQMNSLRAEDTAVYYCARGYRYDVNWYFDVWGAGTMVTVSS VL: DIQMTQSPSSLSASVGDRVTITCQASQDINSYLTWFQQKPGKSPKTLIHRANRLVTGVPSRFSGSGSGTDYTFTISSLQPEDIAIYYCLQYDEFPYTFGGGTKVEIKR", "pEC50": 9.27}
